B1: HDV Ribozyme (parent)
chain: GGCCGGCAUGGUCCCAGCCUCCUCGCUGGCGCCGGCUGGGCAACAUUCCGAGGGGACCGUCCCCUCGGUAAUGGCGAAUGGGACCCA

Variants of: B1
PROCEDURE_TEXT: self-cleavage, relative activity (ratio to wild type); higher = more cleavage; co-transcriptional
Assign class by self-cleavage: not lower than 0.3 means 1.0; lower than 0.3 means 0.0.

Known results for variants:
RESIDUE_CHANGE | CLASS_NAME
A45U C84G | 1.0
C36G U47C | 0.0
G5A U9C | 0.0
C75A G81U | 0.0
G5C C64A | 0.0

Is it the case that C7G G25A has self-cleavage reaching or exceeding 0.3?
0.0

Request: G59C U69C
1.0

Request: G2C G34C
0.0

Request: C22U U72A
0.0
